B1: DNA-binding protein HU, P0A3H0 (parent)
chain: MNKTELINAVAETSGLSKKDATKAVDAVFDSITEALRKGDKVQLIGFGNFEVRERAARKGRNPQTGEEMEIPASKVPAFKPGKALKDAVK

variants of: B1; details: Geobacillus stearothermophilus; pH 7; Thermal; CD; Sodium phosphate 5 mM; NaCl 0.2 M; reversible: yes; structure 1HUE; whole UniProt chain shown
The threshold is 60 °C. Values of Tm beneath it are tagged 1.0; values meeting or exceeding it are tagged 0.0.

[[record]]
sequence_chain = "MNKTELINAVAETSELSKKDATKAVDAVFDSITEALRKGDKVQLIGFGNFEVRERAARKGRNPQTGEEMEIPASKVPAFKPGKALKDAVK [G15E]"
category_label = 1.0


Lookup: In plain terms, does MNKTELINAVAETSGLSKKDATKAVDAVFDSITEALRKGDKVQLIGFGNFEVRERSARKGRNPQTGEEMEIPASKVPAFKPGKALKDAVK [A56S] come in under 60 °C for Tm?
Found: 0.0

Lookup: In plain terms, does MNKTELINAVAETSGLSKKDATKAVDAVFDSITEALRKGDKVQLIGFGNFEVRERAARKGRNPQTGEEIEIPASKVPAFKPGKALKDAVK [M69I] come in under 60 °C for Tm?
Found: 0.0

Lookup: In plain terms, does MNKTELINAVAETSGLSKKDATKAVDAVFDTITEALRKGDKVQLIGFGNFEVRERAARKGRNPQTGEEMEIPASKVPAFKPGKALKDAVK [S31T] come in under 60 °C for Tm?
Found: 0.0
